So I've got a bunch of molecules here, and I need their melting point values.

>>> df
                                   molecule         result
0  CC(O)CNS(=O)(=O)c1ccc(Nc2nc(OCC3CCCCC3)c3nc[nH]c3n2)cc1 (stereo not given)  236 to 238 °C
1  CC1Cc2cccc(-c3ccccc3)c2C(=O)O1 (stereo not given)  140 to 142 °C
2  O=C(c1cc(-c2ccccc2)c(=O)n2c1-c1ccccc1C2)N1CCSCC1  266 to 268 °C

Report melting point for each item below.
1. CN1C(=O)[C@H](NC(=O)CCc2ccccc2)N=C(c2ccccc2)c2ccccc21
2. COc1cc2c(cc1Nc1ncc(Cl)c(Nc3ccc(N(C)C)cc3OC)n1)CCN(CC(=O)N1CCN(C)CC1)CC2
3. Cc1cc(O)c(SCc2ccccc2)c(=O)o1

stdout:
179 °C
145 °C
128 °C

Report melting point for each item below.
1. CN(CCNCc1ccccc1)Cc1ccccc1
2. CCc1cn(C2CC(O)C(CNC(=O)Cc3c(Cl)cccc3Cl)O2)c(=O)[nH]c1=O (stereo not given)

stdout:
["83 to 84 °C", "296 to 297 °C"]

Report melting point for each item below.
1. COc1ccc(OC2COc3ccc(OCc4cc(OC)ccn4)cc3C2O)cc1 (stereo not given)
2. CCOC(=O)Cc1ccc(-c2nc(COc3ccc(COc4nn(-c5ccccc5)cc4/C=C/c4coc(C(C)(C)C)n4)cc3OC)c(C)o2)cc1
3. Cc1cccc(C)c1Sc1c(O)cc(-c2ccccc2)oc1=O
4. N#Cc1c(OCC#CI)nsc1SC(F)F
5. N#CC=C1CC2(CCCC2)c2ccccc21
6. Cc1ccc(F)c(-c2cc(Nc3ccnc4cn(CC(O)CO)nc34)ccn2)n1 (stereo not given)
7. CC(C)(C)OC(=O)NC(COCc1ccccc1)c1nc2c(C(F)(F)F)cccc2c(=O)o1 (stereo not given)

stdout:
1: 80 to 82 °C; 2: 126 to 129 °C; 3: 248 to 249 °C; 4: 106 to 107 °C; 5: 82 °C; 6: 182 to 184 °C; 7: 98 °C

====

property.label: melting point

In [3]: df
Out[3]:
                                   compound         result
0  O=P(O)(O)CSc1nc2cc(Cl)c(C#Cc3ccccc3)cc2[nH]1  210 to 215 °C

Report melting point for each item below.
1. O=C(CCN1C(=O)CSC1=S)Nc1ccccc1[N+](=O)[O-]
2. CNS(=O)(=O)OCCOc1ccccc1
3. CCOC(=O)C=C(C)C=CC=C(C)C=Cc1c(Cl)cc(OC)c(C)c1Cl
4. CCCCc1nc2c(N)nc3cccnc3c2n1CCNC(=O)Cc1cccc(O)c1
5. Oc1ccccc1-c1nc(-c2ccccc2O)n(Cc2ccncc2)n1
6. OC1CSC(Oc2cc(-c3ccccn3)ccc2Cl)C(O)C1O (centres undefined)
7. CCOC(=O)c1cn(C2CC2)c2nc(N3CCC(NCC(C)=O)C3)c(F)cc2c1=O (centres undefined)

stdout:
1. 170 to 171 °C
2. 66 to 68 °C
3. 100 to 101 °C
4. 208 to 210 °C
5. 197 to 199 °C
6. 108 °C
7. 203 to 204 °C

Report melting point for each item below.
1. Cc1cc2c3c(c1)c(=O)c(C(=O)O)cn3C1CCCCC21 (centres undefined)
2. CNC(=O)c1ccc(-c2ccc3nnn(Cc4ccc5ncccc5c4)c3n2)cc1F

stdout:
1: 188 to 190 °C; 2: 212 to 214 °C

====

So I've got a bunch of molecules here, and I need their melting point values.

# annotated cases, reported melting point shown
                                   molecule         result
0             OCc1ccccc1-c1cc(-c2ccccc2)on1    68 to 70 °C
1  CC(C)(C)OC(=O)NC(CC(=O)ON1C(=O)CCC1=O)c1ccc(-c2ccccc2)cc1 (stereo not given)         161 °C
2  CN1CCN(c2ccc(C3CCC4(CCC4c4ccccc4)C(=O)N3c3ccccc3)cc2)CC1 (stereo not given)  166 to 168 °C

Report melting point for each item below.
1. CNC(=S)Nc1cc(C)ccc1N1CCOCC1
2. COc1ccccc1Cc1ccc(-c2cnn3c(O)ncnc23)cc1
3. CS(=O)(=O)c1ccc(C2=C(c3ccc(F)cc3)C(=O)C2(Cl)Cl)cc1
4. CC(=O)N[C@@H](C)c1ccc(C(C)=O)cc1
5. CCCCCCCCCCCCc1c(C)[nH]c(C(=O)OCC)c1C
6. C/C=C/c1nnc(N2N=C(c3ccc([N+](=O)[O-])c(C)c3)c3cc4c(cc3C[C@H]2C)OCO4)s1
7. O=C(O)c1cc(N2C(=O)CCC2=O)cc([N+](=O)[O-])c1

stdout:
1. 107 °C
2. 246 to 256 °C
3. 116 to 118 °C
4. 125 to 128 °C
5. 65 to 67 °C
6. 232 to 237 °C
7. 285 to 290 °C

====

So I've got a bunch of compounds here, and I need their melting point values.

# annotated cases, reported melting point shown
>>> print(df.to_string())
                                   compound  property_label         result
0  CC(C)(Oc1ccc(Oc2ccc(OC(C)(C)C(=O)O)cc2)cc1)C(=O)O   melting point         125 °C
1  C[C@@H](S[C@H]1CO[C@H](c2ccc(C(=O)Nc3ccc(C#N)c4ccccc34)cc2)OC1)[C@](O)(Cn1cncn1)c1ccc(F)cc1F   melting point         109 °C
2  CN1CCN(Cc2ccc(NC(=O)c3cccc4cc(Oc5ccnc(NC(=O)C6CC6)c5)ccc34)cc2C(F)(F)F)CC1   melting point  218 to 220 °C
3      O=C1Nc2ccc([N+](=O)[O-])cc2C12OCCCO2   melting point  155 to 168 °C
4  Oc1ncnc2nc(CC3CCN(CC4COc5ccccc5O4)CC3)n(Cc3ccc(F)cc3)c12 (configuration not stated)   melting point         175 °C

Report melting point for each item below.
1. COc1ccc(Cl)cc1C(=O)NC1COc2cc(C)ccc2C1 (configuration not stated)
2. O=C(NC1N=C(c2ccccc2F)c2ccccc2NC1=O)c1cc2ccccc2o1 (racemic)
3. O=C(Nc1cccc(CN2C(=O)[C@H]3CCC[C@H]3Nc3ccccc32)c1)OCc1ccccc1 (relative stereo)
4. N#Cc1cc(Cl)c(F)cc1F
5. O=C(NC1N=C(c2ccc(F)cc2)c2ccccc2NC1=O)OCc1ccccc1 (configuration not stated)
6. Brc1ccc2c(c1)COC(N[C@@H]1CCc3ccccc31)=N2

stdout:
1: 97 °C; 2: 289 to 291 °C; 3: 179 to 180 °C; 4: 48 to 50 °C; 5: > 260 °C; 6: 123 °C

====

So I've got a bunch of compounds here, and I need their melting point values.

>>> print(df.to_string())
                                   compound  property_label         result
0                      Cc1cnc2c(c1)CCCC2=NO   melting point         188 °C
1                         COC(=O)CCC(=O)CBr   melting point    12 to 15 °C
2                    COc1ccccc1SCCCCCC(=O)O   melting point    81 to 82 °C
3                  COc1nc2cc(F)cc(C)c2nc1OC   melting point  107 to 109 °C
4     COc1ccc2c(CCCC(=O)O)nnc(-c3nccs3)c2c1   melting point  218 to 220 °C
5  Cc1cc(N)cc(C)c1Oc1ccc(O)c(C(=O)c2ccc(F)cc2)c1   melting point  198 to 202 °C
6      CC1(C)COC(c2ccccc2-c2ccc(CCl)cc2)=N1   melting point    72 to 75 °C
7  CN(CCCCCNC(=NCCSCc1csc(NC(=N)N)n1)NC#N)CCC(c1ccc(Cl)cc1)c1ccccn1 (stereo unspecified)   melting point    87 to 90 °C

Report melting point for each item below.
1. CCCc1nc2c(N)nc(C)c(C)c2n1CCCCNC(C)=O
2. Cc1c(Cl)cc2c(c1Cl)OC(C(F)(F)F)C(C(=O)O)=C2 (stereo unspecified)
3. Cc1cc(-c2cc3c(cc2C)OC(C)(C)C=C3)ccn1

stdout:
1. 200 to 201 °C
2. 230 to 231 °C
3. 212 to 214 °C

====

property.label: melting point

# annotated cases, reported melting point shown
>>> df
                                   compound  property_label         result
0  Cc1nn(C)c(C)c1C(=O)Nc1ccc(C(C(F)(F)F)C(F)(F)F)c(CC(C)C)c1   melting point  148 to 151 °C
1  CCCn1c(=O)c2[nH]c(C3CCCC3)nc2n(CCc2ccc(N)cc2)c1=O   melting point  248 to 250 °C

Report melting point for each item below.
1. COC(=O)c1ccc(C(C)(C)C)[nH]c1=O
2. Cc1nc2ccc(F)cc2c2c1ncn2C
3. CN1C(=O)C(c2cc[nH]c2)(c2cccc(OCc3ccccc3)c2)N=C1N (stereo not given)
4. COCCNC(=O)c1cccc(-c2cccc3cc(Cc4cc(Cl)cc(Cl)c4)sc23)c1
5. CC(C)n1nc(-c2cc(C#N)c(=O)[nH]c2-c2ccccc2)ccc1=O

stdout:
1: 171 to 174 °C; 2: 184 to 186 °C; 3: 98 to 100 °C; 4: 109 to 110 °C; 5: > 250 °C

Report melting point for each item below.
1. CC(C)(C)CNc1nc(N2CCCC2)cc(N2CCNCC2)n1
2. Cc1nnc(COc2cccc(NC(=O)N(C)C)c2)o1
3. c1cnc2cc(C34CCCN3CCC4)oc2c1

stdout:
118 to 120 °C
102 to 105 °C
39 to 41 °C

Values were extracted from a melting point compilation (Tetko et al.; mined from patent text by program, amines drawn as free bases though some values may be those of a salt).
